Reference for the values: ChEMBL document CHEMBL1806416

Tested on: HL-60
ASSAY INFO: Cytotoxicity against human HL60 cells after 2 days
Type: functional, cell-based
COND: HL-60, 48 h
ENDPOINT NAME: IC50

INSERT INTO measurements (input_smiles, result) VALUES
  ('c1ccc(-c2cc(-c3ccccn3)c3c(n2)-c2ccccc2OC3)nc1', '200 nM'),
  ('c1ccc(-c2cc(-c3ccoc3)c3c(n2)-c2ccccc2OC3)cc1', '6600 nM'),
  ('c1ccc(-c2cc(-c3ccccn3)c3c(n2)-c2ccccc2OC3)cc1', '> 50000 nM'),
  ('c1cncc(-c2cc(-c3ccco3)nc3c2COc2ccccc2-3)c1', '1800 nM');

---

# reported inhibition; entries follow
SYSTEM TESTED: DNA topoisomerase 2-alpha (Homo sapiens) (UniProt P11388)
Sequence (P11388 whole entry): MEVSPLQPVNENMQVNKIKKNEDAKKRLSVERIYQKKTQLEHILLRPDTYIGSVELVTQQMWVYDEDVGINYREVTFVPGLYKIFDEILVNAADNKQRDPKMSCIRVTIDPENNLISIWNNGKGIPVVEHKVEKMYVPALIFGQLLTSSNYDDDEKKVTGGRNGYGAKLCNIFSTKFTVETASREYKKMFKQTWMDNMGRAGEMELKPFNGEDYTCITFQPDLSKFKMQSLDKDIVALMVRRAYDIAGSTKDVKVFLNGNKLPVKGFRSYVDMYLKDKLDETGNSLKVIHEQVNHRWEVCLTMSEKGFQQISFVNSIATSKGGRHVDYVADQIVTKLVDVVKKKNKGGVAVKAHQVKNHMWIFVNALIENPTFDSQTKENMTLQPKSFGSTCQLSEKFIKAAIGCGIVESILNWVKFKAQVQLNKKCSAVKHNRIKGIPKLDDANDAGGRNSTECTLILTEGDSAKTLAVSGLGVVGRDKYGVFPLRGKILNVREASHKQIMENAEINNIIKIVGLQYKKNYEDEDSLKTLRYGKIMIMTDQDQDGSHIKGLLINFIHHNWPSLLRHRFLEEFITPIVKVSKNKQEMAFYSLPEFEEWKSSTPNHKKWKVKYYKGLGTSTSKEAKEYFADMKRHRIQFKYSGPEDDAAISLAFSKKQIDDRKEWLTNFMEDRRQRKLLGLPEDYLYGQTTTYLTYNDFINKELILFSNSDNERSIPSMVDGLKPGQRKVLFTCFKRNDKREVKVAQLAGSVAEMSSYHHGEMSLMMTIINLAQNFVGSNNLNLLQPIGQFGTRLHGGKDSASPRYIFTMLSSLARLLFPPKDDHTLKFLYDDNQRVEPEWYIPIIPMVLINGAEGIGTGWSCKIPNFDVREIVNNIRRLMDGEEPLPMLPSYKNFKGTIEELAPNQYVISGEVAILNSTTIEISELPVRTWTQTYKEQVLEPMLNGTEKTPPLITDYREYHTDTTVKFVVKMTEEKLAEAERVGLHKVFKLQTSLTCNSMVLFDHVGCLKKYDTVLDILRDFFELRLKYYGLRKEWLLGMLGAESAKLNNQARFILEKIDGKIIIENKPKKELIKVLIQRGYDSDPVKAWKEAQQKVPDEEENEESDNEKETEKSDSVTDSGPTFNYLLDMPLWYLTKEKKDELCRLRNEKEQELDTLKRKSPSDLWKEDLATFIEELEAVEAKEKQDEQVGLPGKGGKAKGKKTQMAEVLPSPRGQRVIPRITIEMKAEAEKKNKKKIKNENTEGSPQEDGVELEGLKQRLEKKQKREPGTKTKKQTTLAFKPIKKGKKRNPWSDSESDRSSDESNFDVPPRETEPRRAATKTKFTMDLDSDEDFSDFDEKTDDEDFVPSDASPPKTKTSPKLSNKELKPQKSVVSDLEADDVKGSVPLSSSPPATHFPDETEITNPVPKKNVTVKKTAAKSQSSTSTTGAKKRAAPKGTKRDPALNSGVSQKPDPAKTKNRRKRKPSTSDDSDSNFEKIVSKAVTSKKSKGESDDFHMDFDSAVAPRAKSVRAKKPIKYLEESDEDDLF
ASSAY INFO: Inhibition of human DNA topoisomerase 2 alpha assessed as inhibition of supercoiled pBR322 DNA relaxation at 100 uM after 30 mins by gel electrophoresis
ENDPOINT NAME: inhibition (%)

INSERT INTO results (input_smiles, endpoint_name, numeric_readout) VALUES
  ('c1ccc(-c2cc(-c3cccs3)c3c(n2)-c2ccccc2OC3)nc1', 'inhibition', 19.4),
  ('c1ccc(-c2cc(-c3ccccn3)c3c(n2)-c2ccccc2OC3)cc1', 'inhibition', 8.7),
  ('c1csc(-c2cc(-c3ccoc3)c3c(n2)-c2ccccc2OC3)c1', 'inhibition', 8.4),
  ('c1ccc(-c2cc(-c3cccs3)nc3c2COc2ccccc2-3)nc1', 'inhibition', 8.5),
  ('c1ccc(-c2cc(-c3ccccn3)nc3c2COc2ccccc2-3)cc1', 'inhibition', 7.2),
  ('c1ccc(-c2cc(-c3ccco3)c3c(n2)-c2ccccc2OC3)cc1', 'inhibition', 11.5);

---

SYSTEM TESTED: DNA topoisomerase 2-alpha (Homo sapiens) (UniProt P11388)
ASSAY INFO: Inhibition of human DNA topoisomerase 2 alpha assessed as inhibition of supercoiled pBR322 DNA relaxation at 100 uM after 30 mins by gel electrophoresis
ENDPOINT NAME: inhibition

INSERT INTO results (input_smiles, endpoint_name, result) VALUES
  ('c1coc(-c2cc(-c3ccco3)c3c(n2)-c2ccccc2OC3)c1', 'inhibition', '11.6%'),
  ('c1ccc(-c2cc(-c3ccco3)nc3c2COc2ccccc2-3)nc1', 'inhibition', '2%'),
  ('c1csc(-c2cc(-c3cccs3)c3c(n2)-c2ccccc2OC3)c1', 'inhibition', '7.9%'),
  ('c1ccc(-c2cc(-c3ccccc3)c3c(n2)-c2ccccc2OC3)cc1', 'inhibition', '15.4%'),
  ('c1ccc(-c2cc(-c3ccsc3)c3c(n2)-c2ccccc2OC3)cc1', 'inhibition', '17.6%'),
  ('c1ccc(-c2cc(-c3cccs3)nc3c2COc2ccccc2-3)cc1', 'inhibition', '7.5%'),
  ('c1coc(-c2cc(-c3cccs3)nc3c2COc2ccccc2-3)c1', 'inhibition', '14.1%'),
  ('c1ccc(-c2cc(-c3ccccn3)c3c(n2)-c2ccccc2OC3)nc1', 'inhibition', '10.7%'),
  ('c1ccc(-c2cc(-c3cccs3)c3c(n2)-c2ccccc2OC3)cc1', 'inhibition', '10.8%'),
  ('c1ccc(-c2cc(-c3ccsc3)nc3c2COc2ccccc2-3)nc1', 'inhibition', '25.3%'),
  ('c1cncc(-c2cc(-c3ccco3)nc3c2COc2ccccc2-3)c1', 'inhibition', '5.6%');

---

SYSTEM TESTED: DNA topoisomerase 1 (Homo sapiens)
Sequence (whole entry): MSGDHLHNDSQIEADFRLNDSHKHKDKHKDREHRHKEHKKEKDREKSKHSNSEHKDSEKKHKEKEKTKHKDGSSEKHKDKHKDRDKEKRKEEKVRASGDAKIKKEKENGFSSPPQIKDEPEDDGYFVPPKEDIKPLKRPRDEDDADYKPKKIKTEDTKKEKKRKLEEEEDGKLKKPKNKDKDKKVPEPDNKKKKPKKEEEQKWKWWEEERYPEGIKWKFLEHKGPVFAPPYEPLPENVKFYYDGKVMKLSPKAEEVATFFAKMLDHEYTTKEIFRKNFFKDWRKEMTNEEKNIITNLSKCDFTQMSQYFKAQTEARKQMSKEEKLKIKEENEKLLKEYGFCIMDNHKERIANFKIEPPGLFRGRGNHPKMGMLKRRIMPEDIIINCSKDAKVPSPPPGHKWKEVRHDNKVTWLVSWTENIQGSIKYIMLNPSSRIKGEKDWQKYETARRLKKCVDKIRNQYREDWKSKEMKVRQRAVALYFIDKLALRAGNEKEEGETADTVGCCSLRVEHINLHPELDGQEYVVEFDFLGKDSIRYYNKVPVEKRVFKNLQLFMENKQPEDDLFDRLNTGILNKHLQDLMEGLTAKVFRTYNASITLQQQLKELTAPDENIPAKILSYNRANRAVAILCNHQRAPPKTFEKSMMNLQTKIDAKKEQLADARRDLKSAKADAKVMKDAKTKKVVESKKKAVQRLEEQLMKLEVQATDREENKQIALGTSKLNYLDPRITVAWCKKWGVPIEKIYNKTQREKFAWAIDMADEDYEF
ASSAY INFO: Inhibition of human recombinant DNA topoisomerase 1 assessed as inhibition of supercoiled pBR322 DNA relaxation at 100 uM after 30 mins by gel electrophoresis
If the reported inhibition equals or exceeds 3%, assign yes (1). If not, assign no (0).

INSERT INTO measurements (input_smiles, system_tested, class_name) VALUES
  ('c1ccc(-c2cc(-c3ccccn3)nc3c2COc2ccccc2-3)cc1', 'DNA topoisomerase 1 (Homo sapiens)', 'yes (1)'),
  ('c1ccc(-c2cc(-c3cccs3)nc3c2COc2ccccc2-3)nc1', 'DNA topoisomerase 1 (Homo sapiens)', 'no (0)'),
  ('c1cncc(-c2cc(-c3ccco3)nc3c2COc2ccccc2-3)c1', 'DNA topoisomerase 1 (Homo sapiens)', 'yes (1)'),
  ('c1ccc(-c2cc(-c3ccsc3)c3c(n2)-c2ccccc2OC3)cc1', 'DNA topoisomerase 1 (Homo sapiens)', 'yes (1)'),
  ('c1coc(-c2cc(-c3cccs3)nc3c2COc2ccccc2-3)c1', 'DNA topoisomerase 1 (Homo sapiens)', 'yes (1)'),
  ('c1coc(-c2cc(-c3ccco3)c3c(n2)-c2ccccc2OC3)c1', 'DNA topoisomerase 1 (Homo sapiens)', 'yes (1)'),
  ('c1ccc(-c2cc(-c3cccnc3)c3c(n2)-c2ccccc2OC3)cc1', 'DNA topoisomerase 1 (Homo sapiens)', 'no (0)'),
  ('c1ccc(-c2cc(-c3ccco3)nc3c2COc2ccccc2-3)nc1', 'DNA topoisomerase 1 (Homo sapiens)', 'yes (1)'),
  ('c1ccc(-c2cc(-c3ccccn3)c3c(n2)-c2ccccc2OC3)nc1', 'DNA topoisomerase 1 (Homo sapiens)', 'no (0)'),
  ('c1ccc(-c2cc(-c3cccnc3)c3c(n2)-c2ccccc2OC3)nc1', 'DNA topoisomerase 1 (Homo sapiens)', 'no (0)'),
  ('c1ccc(-c2cc(-c3cccs3)c3c(n2)-c2ccccc2OC3)cc1', 'DNA topoisomerase 1 (Homo sapiens)', 'no (0)'),
  ('c1csc(-c2cc(-c3cccs3)c3c(n2)-c2ccccc2OC3)c1', 'DNA topoisomerase 1 (Homo sapiens)', 'no (0)'),
  ('c1ccc(-c2cc(-c3ccsc3)nc3c2COc2ccccc2-3)nc1', 'DNA topoisomerase 1 (Homo sapiens)', 'yes (1)'),
  ('c1ccc(-c2cc(-c3cccs3)nc3c2COc2ccccc2-3)cc1', 'DNA topoisomerase 1 (Homo sapiens)', 'yes (1)'),
  ('c1ccc(-c2cc(-c3ccco3)c3c(n2)-c2ccccc2OC3)nc1', 'DNA topoisomerase 1 (Homo sapiens)', 'yes (1)'),
  ('c1ccc(-c2cc(-c3ccoc3)c3c(n2)-c2ccccc2OC3)cc1', 'DNA topoisomerase 1 (Homo sapiens)', 'no (0)'),
  ('c1ccc(-c2cc(-c3ccccc3)c3c(n2)-c2ccccc2OC3)cc1', 'DNA topoisomerase 1 (Homo sapiens)', 'no (0)'),
  ('c1ccc(-c2cc(-c3ccco3)nc3c2COc2ccccc2-3)cc1', 'DNA topoisomerase 1 (Homo sapiens)', 'yes (1)'),
  ('c1coc(-c2cc(-c3cccs3)c3c(n2)-c2ccccc2OC3)c1', 'DNA topoisomerase 1 (Homo sapiens)', 'no (0)'),
  ('c1csc(-c2cc(-c3ccoc3)c3c(n2)-c2ccccc2OC3)c1', 'DNA topoisomerase 1 (Homo sapiens)', 'no (0)'),
  ('c1ccc(-c2cc(-c3cccs3)c3c(n2)-c2ccccc2OC3)nc1', 'DNA topoisomerase 1 (Homo sapiens)', 'yes (1)'),
  ('c1ccc(-c2cc(-c3ccccn3)c3c(n2)-c2ccccc2OC3)cc1', 'DNA topoisomerase 1 (Homo sapiens)', 'no (0)'),
  ('c1ccc(-c2cc(-c3ccco3)c3c(n2)-c2ccccc2OC3)cc1', 'DNA topoisomerase 1 (Homo sapiens)', 'no (0)');

---

SYSTEM TESTED: DNA topoisomerase 2-alpha (Homo sapiens) (UniProt P11388)
ASSAY INFO: Inhibition of human DNA topoisomerase 2 alpha assessed as inhibition of supercoiled pBR322 DNA relaxation at 100 uM after 30 mins by gel electrophoresis
# reported inhibition; entries follow
ENDPOINT NAME: inhibition

INSERT INTO measurements (input_smiles, endpoint_name, result) VALUES
  ('c1ccc(-c2cc(-c3cccnc3)c3c(n2)-c2ccccc2OC3)nc1', 'inhibition', '8.7%'),
  ('c1ccc(-c2cc(-c3cccnc3)c3c(n2)-c2ccccc2OC3)cc1', 'inhibition', '14%'),
  ('c1ccc(-c2cc(-c3ccco3)c3c(n2)-c2ccccc2OC3)nc1', 'inhibition', '23.4%'),
  ('c1ccc(-c2cc(-c3ccco3)nc3c2COc2ccccc2-3)cc1', 'inhibition', '28.4%'),
  ('c1coc(-c2cc(-c3cccs3)c3c(n2)-c2ccccc2OC3)c1', 'inhibition', '6.8%'),
  ('c1ccc(-c2cc(-c3ccoc3)c3c(n2)-c2ccccc2OC3)cc1', 'inhibition', '10.5%');
